All values here come from PubChem BioAssay (NCI).

- System: IGROV1 ovarian
- ASSAY_PROTOCOL: NCI tumour cell line growth inhibition, 48 h
Where a SMILES comes first, the peptide text is derived from it. [ ]: non-standard residue; d: D form. The star is where a group is joined. NMeAc5c = CNC1(C(=O)O)CCCC1; Boc = CC(C)(C)OC(=O)*; OBn = c1ccc(CO*)cc1
What TGI was measured for each of the following?

State its TGI: `CC1(C)C(=O)/C=C\C(=O)C(C)(C)C2=CC=C(O2)C(C)(C)C(=O)/C=C\C(=O)C(C)(C)C2=CC=C1O2`
> 100 µM

Could you please provide reported TGI for CC1CCc2nc[nH]c(=O)c21 (stereo unspecified) ? Thanks!
> 100 µM

Respond only with TGI recorded for COC(=O)c1ccccc1CC1Cc2ccc3c(c2C1=O)CCCC3 (stereo unspecified)
> 100 µM

Give recorded TGI. `CN(C)N=Nc1ccc(C(N)=O)cc1`
> 100 µM

Write down TGI measured for item `Cc1ccccc1C(=O)N1CCc2c([nH]c3ccccc23)C1`
> 100 µM

Using the record for COC1/C=C/OC2(C)Oc3c(C)c(O)c4c(O)c(c(/C=N/Nc5ccc([N+](=O)[O-])cc5[N+](=O)[O-])c(O)c4c3C2=O)NC(=O)C(C)=C/C=C/C(C)C(O)C(C)C(O)C(C)C(OC(C)=O)C1C (stereo unspecified) , state its measured TGI.
> 50 µM

Give me measured TGI, please, for this molecule: `N#CC1(C#N)N[C@@H](c2ccsc2)[C@H]2C(=O)N(c3ccccc3)C(=O)[C@H]21`
> 100 µM

Provide TGI value for the following molecule: C#CCNC(CS)C(=O)O (stereo unspecified)
> 100 µM

Provide only the value of recorded TGI for `O=[N+]([O-])c1ccc2c(c1)c(OCc1ccccc1)nn2Cc1ccccc1`
> 100 µM

Give the reported TGI for this molecule. `Nc1nc(-n2c(-c3ccccc3)nc3c(Br)cc(Br)cc3c2=O)nnc1-c1cccc(Cl)c1Cl`
45.9 µM

Look up TGI of `Nc1c2c(nc3ccccc13)-c1ccccc1CC2` and report it.
19.8 µM

Please report TGI for the following molecule: `C=CCN1C[C@H](C)N([C@H](c2ccc(C(=O)NC(CC)CC)cc2)c2cccc(OC)c2)C[C@H]1C`
> 100 µM

Look up and state reported TGI for CC(=O)OC1CC(OC2C(O)CC(OC3C(O)CC(OC4CCC5(C)C(CCC6C5CC(O)C5(C)C(C7=CC(=O)OC7)CCC65O)C4)OC3C)OC2C)OC(C)C1OC1OC(CO)C(O)C(O)C1O (stereo unspecified)
1.11 µM

For the molecule Fc1[nH]nc2ccc([C@@H]3Nc4ccc5[nH]ncc5c4[C@H]4C5CCC(C5)[C@@H]34)cc12 (stereo partly specified) , report TGI.
16 µM

Return the recorded TGI value; entry: CC(C)=CCc1c2c(c3occ(-c4ccc(O)cc4)c(=O)c3c1O)CC(C(C)(C)O)O2 (stereo unspecified)
12 µM

Give the measured TGI for CN(C(=O)C(Cc1ccccc1)NC(=O)OC(C)(C)C)C1(C(=O)NC(Cc2ccccc2)C(=O)OCc2ccccc2)CCCC1 (stereo not drawn) (Boc-Phe-[NMeAc5c]-Phe-OBn; configuration not given here)
> 100 µM

Provide one value: measured TGI of `COc1cc2ccnc([C@@H](OC(=O)c3ccccc3)c3ccc(OC)c(OC)c3OC)c2cc1OC`
> 100 µM

Quickly give me recorded TGI for `O=C(N/N=C(/COc1ccc(Cl)cc1)N=Cc1ccncc1)c1ccncc1`
> 100 µM

Retrieve TGI measured for OC1CSSC1Cn1cnc2c(Nc3ccc(OCc4cccc(F)c4)c(Cl)c3)ncnc21 (stereo unspecified) and print it.
13.6 µM

Please indicate TGI recorded for `C=CCO[C@H]1CO[C@H]2[C@@H]1OC[C@@H]2Oc1ccc(Nc2ccnc(Nc3ccc(O[C@H]4CO[C@H]5[C@@H]4OC[C@@H]5OCC=C)c(Cl)c3)n2)cc1Cl`
3.54 µM

For the molecule `COc1cc2cc(OC)c3cc4c(cc3c2c(OC)c1OC)OCO4` , report TGI.
> 100 µM

Specify measured TGI for `COc1ccc(COCCOCc2nc(C#N)c(N)o2)cc1` .
> 100 µM

Please give the documented TGI of `CCOC(=O)Cn1c(C(F)(F)F)nc2nc(Cl)c(Cl)nc21`
> 76.6 µM

Return TGI for the following molecule: `Cc1cnc(NCCCN(C)C)c2c1[nH]c1ccc3cc(O)ccc3c12`
4.6 µM

Quickly give me recorded TGI for `COc1cccc(C(=O)O[C@H]2[C@@H]3[C@]4(OC(C)=O)CO[C@@H]4C[C@H](O)[C@@]3(C)C(=O)[C@H](OC(C)=O)C3=C(C)[C@@H](OC(=O)[C@H](O)[C@@H](NC(=O)OC(C)(C)C)c4ccco4)C[C@]2(O)C3(C)C)c1`
> 37.5 µM

Name the recorded TGI of the molecule listed here: `O=C(CCc1nc(=S)[nH][nH]1)Nc1cc(Cl)c(Cl)cc1Cl`
> 100 µM

====

- System: UACC-62 melanoma
- ASSAY_PROTOCOL: NCI tumour cell line growth inhibition, 48 h
For each record, write down the corresponding TGI.

Specify measured TGI for COC1/C=C/OC2(C)Oc3c(C)c(O)c4c(O)c(c(/C=N/Nc5ccc([N+](=O)[O-])cc5[N+](=O)[O-])c(O)c4c3C2=O)NC(=O)C(C)=C/C=C/C(C)C(O)C(C)C(O)C(C)C(OC(C)=O)C1C (stereo not given) .
5.08 µM

Return value of TGI for input COC(=O)C1(C(C)C)CCc2c(OC)ccc(OC)c2C1=O (stereo not given) , no commentary.
> 100 µM

Indicate the recorded TGI value for this molecule: `Cc1nc2c(ccc3ncccc32)[nH]1`
> 100 µM

Tell us which TGI value is on record for COC(=O)c1ccccc1CC1Cc2ccc3c(c2C1=O)CCCC3 (stereo not given)
> 100 µM

Please give the documented TGI of `Clc1ccccc1C(SCc1ccccc1)SCc1ccccc1`
> 100 µM

Tell me TGI reported for `CC(=O)[CH-]C(=O)c1ccccc1.CC(=O)[CH-]C(=O)c1ccccc1.CN(C)c1ccc([O-])cc1.CN(C)c1ccc([O-])cc1.Cl.[Ti+4]`
> 31.6 µM

Input `COc1ccc(-c2c(C#N)c(-c3ccc(C)cc3)n(NS(=O)(=O)c3ccc(C)cc3)c(=O)c2C#N)cc1` , output reported TGI.
> 100 µM

Recall and state the measured TGI for `COc1cc2c(c(OC)c1OC)C(=O)[C@@H]1[C@H]2N1C(N)=O` .
68.2 µM

Supply TGI value. Item: `Cc1ccc2c(C)c3c(ccc4ccccc43)c[n+]2c1`
22 µM

Provide measured TGI value, entry: `O=C1NC(=NCCc2cccc(F)c2)S/C1=C\c1ccc2ncccc2c1`
> 25 µM

Provide TGI value for the following molecule: `Cc1ccc(Cl)c2c(N=Nc3ccccc3[N+](=O)[O-])c(O)[nH]c12`
> 100 µM

Please indicate TGI recorded for CN1CCc2cc(N)cc3c2C1Cc1ccc(O)c(O)c1-3 (stereo not given)
70.4 µM

Report measured TGI; entry is `COc1cccc(-c2cc(-c3cccc(NS(C)(=O)=O)c3)nc(N)c2C#N)c1O`
> 100 µM

Give the reported TGI for this molecule. CC(C)=CCc1c2c(c3occ(-c4ccc(O)cc4)c(=O)c3c1O)CC(C(C)(C)O)O2 (stereo not given)
30 µM

Give the measured TGI for `CN(C)N=Nc1ccc(C(N)=O)cc1`
> 100 µM

Check the records and state TGI for `Cc1ccc(CN2CCC(C(=O)Nc3ccc(-c4cc5ccccc5[nH]4)cc3)CC2)o1`
> 100 µM

Determine from records and report TGI for CCOC(=O)C1(C/C=C/CBr)Cc2ccccc2C1=O (stereo not given)
5.44 µM

State, in one line, measured TGI of `N#CC1(C#N)N[C@@H](c2ccsc2)[C@H]2C(=O)N(c3ccccc3)C(=O)[C@H]21`
> 100 µM

Indicate the recorded TGI value for this molecule: `O=C(N/N=C(/COc1ccc(Cl)cc1)N=Cc1ccncc1)c1ccncc1`
> 100 µM

Item C1=C2/CC[C@H](Sc3ccccc3)C2C2(CCCCC/1)OCCO2 (stereo not given in full) : provide TGI
64.5 µM

====

- Tested on: OVCAR-5 ovarian
- ASSAY_PROTOCOL: NCI tumour cell line growth inhibition, 48 h; in the data active = GI50 below about 0.43 µM; inactive = the rest
*1 amine or outer side, *2 acyl side, *3 side chain or, on linkers, in order; H or OH if unused. Where a SMILES comes first, the peptide text is derived from it. Bridges are numbered along the chain shown (N, C = ends). [ ]: non-standard residue; d: D form. The star is where a group is joined. Phe(3,5-F2) = N[C@@H](Cc1cc(F)cc(F)c1)C(=O)O; Pro(4R-Me) = C[C@H]1CN[C@H](C(=O)O)C1; aThr = C[C@H](O)[C@H](N)C(=O)O; Pip = O=C(O)[C@@H]1CCCCN1; X10 = Fc1cc(C2CC2)ccc1N*; CO = O=C([*:1])[*:2]
Select the correct class. Options are active, inactive and nothing else.

State the result this test recorded for `Nc1nc(-n2c(-c3ccccc3)nc3c(Br)cc(Br)cc3c2=O)nnc1-c1cccc(Cl)c1Cl` .
inactive

Please let me know the test result on file for CCOC1Oc2ccccc2C(=O)/C1=C/Nc1ccc(C(C)=O)cc1 (configuration not stated) .
inactive

For this compound, state the assay outcome: COC([CH2][Hg][n]1cnc2c1c(=O)n(C)c(=O)n2C)CN1C(=O)c2ccccc2S1(=O)=O (configuration not stated)
inactive

Identify the outcome logged in this assay for the compound shown: `COc1cc2c(c(OC)c1OC)-c1ccc(NNC(N)=S)c(=O)cc1[C@@H](NC(C)=O)CC2`
inactive

What was the test verdict on C[C@@H]1C[C@H]2C(=O)O[C@@H](C)[C@H](NC(=O)[C@H](Cc3cc(F)cc(F)c3)NC(=O)Nc3ccc(C4CC4)cc3F)C(=O)N3CCC[C@H]3C(=O)N3CCCC[C@H]3C(=O)N[C@@H](C)C(=O)N2C1 ({X10-CO}-[Phe(3,5-F2)][aThr]P[Pip]A[Pro(4R-Me)]; ester 2-C) ?
active

What is the recorded call for this compound in the test? `O=C(Nc1ccccc1)c1c(O)[nH]c(=S)[nH]c1=O`
inactive

Check the results log: what was the call for `COc1cccc(-c2cc(-c3cccc(NS(C)(=O)=O)c3)nc(N)c2C#N)c1O` ?
inactive

What outcome does the record of this test show for `Cc1ccc(NC(=O)Nc2ccc(-c3cccnc3)cc2N2CCC(CO)CC2)cc1` ?
inactive

Would you mind telling me which call this test gave CC(=O)OC1OC([C@@H]2c3cccc(O)c3C(=O)c3c(O)cc(C)cc32)C(O)C(O)C1O (some centres not stated) ?
active

For `COC(=O)/C=C1\S/C(=N\NC(=O)c2cc3ccc2/C=C\c2ccc(cc2)/C=C\3)N(c2ccccc2)C1=O` , which call appears in the assay record?
inactive

Please indicate how the test categorized CN1CCCCC1CCN1c2ccccc2Sc2ccc(Cl)cc21 (configuration not stated) .
inactive

Please let me know the test result on file for COC1/C=C/OC2(C)Oc3c(C)c(O)c4c(O)c(c(/C=N/Nc5ccc([N+](=O)[O-])cc5[N+](=O)[O-])c(O)c4c3C2=O)NC(=O)C(C)=C/C=C/C(C)C(O)C(C)C(O)C(C)C(OC(C)=O)C1C (configuration not stated) .
inactive

Just curious, what result did `O=C(Nc1ccc(F)cc1)Nc1ccc(Cl)c([N+](=O)[O-])c1` get here?
inactive

Which outcome was entered for the compound `Cc1cc(-c2nc(C(=O)Nc3cc4oc(N5CCOCC5)nc4nc3N3CC[C@@H](O)C3)co2)ccn1` in this test?
inactive

Identify the outcome logged in this assay for the compound shown: `FC(F)(F)c1cccc(Nc2nc(-c3ccccc3)nc3ncccc23)c1`
inactive

Test call for this compound, please: CC1CCc2nc[nH]c(=O)c21 (configuration not stated)
inactive

// outcome(item) with item = `Cc1ccnc2c1ccc1c(C)ccnc12`
inactive
